Tested on: HEK-293T
ASSAY TEXT: Multiplex assay against HEK293T
Format: toxicity, cell-based
CONDITION DETAILS: human, 24 h, 10 µM, compound concentration 10 uM, replicate 1
Non-standard residues stand in square brackets, D forms with d. Residues, ends and D or L forms follow the SMILES beside them.
REPORTED ENDPOINT: Population Hoechst High Intensity Objects (%)

MOLECULE	RESULT VALUE
S=C(NCCCc1c[nH]cn1)NCCCN(Cc1ccc(Cl)c(Cl)c1)c1ccc(Br)cn1	48
OCCCNc1cc(-c2ccnc(Nc3cccc(Cl)c3)n2)ccn1	41
Cc1c(Cc2ccc3ccccc3n2)c2cc(F)ccc2n1CC(=O)O [TIMAPIPRANT]	4
CN1CCN2c3ccccc3Cc3ccccc3C2C1.Cl (stereo not drawn) [MIANSERIN HYDROCHLORIDE]	5
CCn1c(-c2nc3cc(C(=O)N4CCCC(N)C4)ccc3n2C)cc2ccccc21.Cl (stereo not drawn)	12
CC(C)C[C@@H]1NC(=O)[C@@H](C(C)C)NC(=O)[C@@H]2CCCN2C(=O)[C@@H](CC(=O)O)NC(=O)[C@@H](Cc2c[nH]c3ccccc23)NC1=O [BQ-123] (cyclo(L[dW][dD]P[dV]))	6
CC(C)C[C@H](CO)Nc1nc(S[C@@H](C)c2ccccc2)nc2nc(N)sc12 [AZD-8797]	9
COCCCN1CCC(NC(=O)c2cc(Cl)c(N)c3c2OCC3)CC1 [PRUCALOPRIDE]	4

---

Tested on: HEK-293T
ASSAY TEXT: Multiplex assay against HEK293T
Format: toxicity, cell-based
CONDITION DETAILS: human, 48 h, 10 µM, compound concentration 10 uM, replicate 2
// map Population Apoptotic (%) onto a label; ranges lower: < 30%; middle: ≥ 30% and < 40%; upper: ≥ 40%

MOLECULE	LABEL
Nc1nc(CC(=O)Nc2ccc(CCNC[C@H](O)c3ccccc3)cc2)cs1	lower
CCCCC[C@H](O)/C=C/[C@H]1[C@H](O)CC(=O)[C@@H]1CCCCCCC(=O)O	lower
COc1cc(Nc2ncc3c(n2)-c2ccc(Cl)cc2C(c2c(F)cccc2OC)=NC3)ccc1C(=O)O	upper
C[C@H](NC(=O)CNC(=O)c1cccc(Cl)c1)c1ccccc1	middle
CN1C[C@H](C(=O)N[C@]2(C)O[C@@]3(O)[C@@H]4CCCN4C(=O)[C@H](Cc4ccccc4)N3C2=O)C[C@@H]2c3cccc4[nH]cc(c34)C[C@H]21.CS(=O)(=O)O [DIHYDROERGOTAMINE MESYLATE]	middle
Cc1nn(C)c2nc(NNC(=O)Nc3cc(Cl)nc(Cl)c3)cc(C(C)C)c12	upper
CN1CCN2c3ccccc3Cc3ccccc3C2C1.Cl (configuration not stated) [MIANSERIN HYDROCHLORIDE]	middle
O=C(Nc1cc(-c2ccccc2)nn1-c1ccccc1F)c1ccc([N+](=O)[O-])cc1	lower
S=C(NCCCc1c[nH]cn1)NCCCN(Cc1ccc(Cl)c(Cl)c1)c1ccc(Br)cn1	upper
CC(C)(C)c1ccc(CSc2cnn(C(C)(C)C)c(=O)c2Cl)cc1	upper
CC(F)(F)CN1CCOc2c(nn(-c3ccccc3Cl)c2-c2ccc(Cl)cc2)C1=O	middle
O=C(O)CCC/C=C\CC1C(O)CC(O)C1/C=C/C(O)COc1cccc(Cl)c1 (configuration not stated)	lower
COCCCN1CCC(NC(=O)c2cc(Cl)c(N)c3c2OCC3)CC1 [PRUCALOPRIDE]	middle
CC(C)C[C@H](CO)Nc1nc(S[C@@H](C)c2ccccc2)nc2nc(N)sc12	upper
